target: human V1a receptor (Homo sapiens, UniProt P37288); construct: expressed in transfected cells; host or cells: CHO K1 (ATCC), also stably transfected with a modified aequorin; experiment: Cellular in vitro assay for vasopressin receptor activity, V1a cell line (aequorin luminescence); type: cell-based; details: ratio of the IC50 on human V2 to the IC50 on human V1a
Sequence (P37288 whole entry): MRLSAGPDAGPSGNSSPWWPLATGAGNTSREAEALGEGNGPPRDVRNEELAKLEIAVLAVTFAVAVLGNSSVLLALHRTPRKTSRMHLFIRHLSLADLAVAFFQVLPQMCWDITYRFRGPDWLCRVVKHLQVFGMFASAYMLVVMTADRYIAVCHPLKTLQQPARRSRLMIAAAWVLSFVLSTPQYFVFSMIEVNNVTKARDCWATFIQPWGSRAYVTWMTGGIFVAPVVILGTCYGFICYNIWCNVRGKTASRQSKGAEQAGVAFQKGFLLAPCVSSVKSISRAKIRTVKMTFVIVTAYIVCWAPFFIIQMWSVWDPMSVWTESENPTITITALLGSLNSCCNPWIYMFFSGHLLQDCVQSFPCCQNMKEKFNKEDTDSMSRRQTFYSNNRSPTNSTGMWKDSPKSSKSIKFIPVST
Threshold check on ratio IC50 hV2/hV1a: at or above 1 gives satisfied, strictly below gives not satisfied.

**Q:** Check if ratio IC50 hV2/hV1a >= 1 (inclusive). Item: CC(F)c1nc(Cn2nc(-c3ccc(Cl)cc3)n(C[C@H](O)C(F)(F)F)c2=O)nn1-c1ccccc1OC(F)F (single isomer, unassigned) [Example 32]
**A:** satisfied

**Q:** Check if ratio IC50 hV2/hV1a >= 1 (inclusive). Item: Cc1cccc(C)c1-n1nc(Cn2nc(-c3ccc(Cl)cc3)n(C[C@H](O)C(F)(F)F)c2=O)nc1C(C)F (mixture of isomers) [Example 46]
**A:** not satisfied

**Q:** Check if ratio IC50 hV2/hV1a >= 1 (inclusive). Item: CC(F)(F)c1nc(Cn2nc(-c3ccc(Cl)cc3)n(C[C@H](O)C(F)(F)F)c2=O)nn1-c1c(F)cccc1F [Example 70]
**A:** satisfied

**Q:** Check if ratio IC50 hV2/hV1a >= 1 (inclusive). Item: CC(C)c1ccccc1-n1nc(Cn2nc(-c3ccc(Cl)cc3)n(C[C@H](O)C(F)(F)F)c2=O)nc1C(C)(F)F [Example 72]
**A:** satisfied

**Q:** Check if ratio IC50 hV2/hV1a >= 1 (inclusive). Item: CC(F)c1nc(Cn2nc(-c3ccc(Cl)cc3)n(C[C@H](O)C(F)(F)F)c2=O)nn1-c1ccccc1Cl (single isomer, unassigned) [Example 2]
**A:** satisfied

**Q:** Check if ratio IC50 hV2/hV1a >= 1 (inclusive). Item: CC(F)c1nc(Cn2nc(-c3ccc(Cl)cc3)n(C[C@H](O)C(F)(F)F)c2=O)nn1-c1ncccc1C(F)(F)F (single isomer, unassigned) [Example 12]
**A:** satisfied

**Q:** Check if ratio IC50 hV2/hV1a >= 1 (inclusive). Item: CC(F)c1nc(Cn2nc(-c3ccc(Cl)cc3)n(C[C@H](O)C(F)(F)F)c2=O)nn1-c1c(F)cccc1F (mixture of isomers) [Example 45]
**A:** satisfied

**Q:** Check if ratio IC50 hV2/hV1a >= 1 (inclusive). Item: CC(F)c1nc(Cn2nc(-c3ccc(Cl)cc3)n(C[C@H](O)C(F)(F)F)c2=O)nn1-c1ccccc1C#N (mixture of isomers) [Example 38]
**A:** satisfied

**Q:** Check if ratio IC50 hV2/hV1a >= 1 (inclusive). Item: O=c1n(Cc2nc(C(F)(F)C3(O)CCCC3)n(-c3ccccc3Cl)n2)nc(-c2ccc(Cl)cc2)n1C[C@H](O)C(F)(F)F [Example 75]
**A:** satisfied

**Q:** Check if ratio IC50 hV2/hV1a >= 1 (inclusive). Item: CC(F)c1nc(Cn2nc(-c3ccc(Cl)cc3)n(C[C@H](O)C(F)(F)F)c2=O)nn1-c1cccc(F)c1 (single isomer, unassigned) [Example 14]
**A:** not satisfied

**Q:** Check if ratio IC50 hV2/hV1a >= 1 (inclusive). Item: CC(F)c1nc(Cn2nc(-c3ccc(Cl)cc3)n(C[C@H](O)C(F)(F)F)c2=O)nn1-c1cccc(Cl)c1 (single isomer, unassigned) [Example 18]
**A:** not satisfied

**Q:** Check if ratio IC50 hV2/hV1a >= 1 (inclusive). Item: CC(F)c1nc(Cn2nc(-c3ccc(Cl)cc3)n(C[C@H](O)C(F)(F)F)c2=O)nn1-c1cnccc1Cl (mixture of isomers) [Example 4]
**A:** satisfied

**Q:** Check if ratio IC50 hV2/hV1a >= 1 (inclusive). Item: CC(F)c1nc(Cn2nc(-c3ccc(Cl)cc3)n(C[C@H](O)C(F)(F)F)c2=O)nn1-c1cnccc1Cl (single isomer, unassigned) [Example 6]
**A:** satisfied

**Q:** Check if ratio IC50 hV2/hV1a >= 1 (inclusive). Item: CC(F)c1nc(Cn2nc(-c3ccc(Cl)cc3)n(C[C@H](O)C(F)(F)F)c2=O)nn1-c1cccc(F)c1 (single isomer, unassigned) [Example 15]
**A:** not satisfied

**Q:** Check if ratio IC50 hV2/hV1a >= 1 (inclusive). Item: CC(F)c1nc(Cn2nc(-c3ccc(Cl)cc3)n(C[C@H](O)C(F)(F)F)c2=O)nn1-c1ccccc1Cl (mixture of isomers) [Example 1]
**A:** satisfied

**Q:** Check if ratio IC50 hV2/hV1a >= 1 (inclusive). Item: CC(F)c1nc(Cn2nc(-c3ccc(Cl)cc3)n(C[C@H](O)C(F)(F)F)c2=O)nn1-c1ccccc1OC(F)F (mixture of isomers) [Example 31]
**A:** satisfied

**Q:** Check if ratio IC50 hV2/hV1a >= 1 (inclusive). Item: O=c1n(Cc2nc(C(F)(F)F)n(-c3ccccc3Cl)n2)nc(-c2ccc(Cl)cc2)n1C[C@H](O)C(F)(F)F [Example 79]
**A:** satisfied

**Q:** Check if ratio IC50 hV2/hV1a >= 1 (inclusive). Item: CSc1ccccc1-n1nc(Cn2nc(-c3ccc(Cl)cc3)n(C[C@H](O)C(F)(F)F)c2=O)nc1C(C)F (mixture of isomers) [Example 49]
**A:** not satisfied

**Q:** Check if ratio IC50 hV2/hV1a >= 1 (inclusive). Item: CC(F)(F)c1nc(Cn2nc(-c3ccc(Cl)cc3)n(C[C@H](O)C(F)(F)F)c2=O)nn1-c1cnccc1Cl [Example 54]
**A:** satisfied

**Q:** Check if ratio IC50 hV2/hV1a >= 1 (inclusive). Item: CC(F)(F)c1nc(Cn2nc(-c3ccc(Cl)cc3)n(C[C@H](O)C(F)(F)F)c2=O)nn1-c1cnccc1C(F)(F)F [Example 57]
**A:** satisfied

**Q:** Check if ratio IC50 hV2/hV1a >= 1 (inclusive). Item: CC(F)(F)c1nc(Cn2nc(-c3ccc(Cl)cc3)n(C[C@H](O)C(F)(F)F)c2=O)nn1-c1cccc(F)c1 [Example 56]
**A:** not satisfied

**Q:** Check if ratio IC50 hV2/hV1a >= 1 (inclusive). Item: CCc1ccccc1-n1nc(Cn2nc(-c3ccc(Cl)cc3)n(C[C@H](O)C(F)(F)F)c2=O)nc1C(C)F (mixture of isomers) [Example 28]
**A:** not satisfied

**Q:** Check if ratio IC50 hV2/hV1a >= 1 (inclusive). Item: CC(F)(F)c1nc(Cn2nc(-c3ccc(Cl)cc3)n(C[C@H](O)C(F)(F)F)c2=O)nn1-c1ccccc1S(N)(=O)=O [Example 66]
**A:** satisfied

Data origin, for the record: patent US10525041B2
